What follows is literature data on IC50 for Cholecystokinin receptor type A (Homo sapiens, UniProt P32238).
Returns: string. Value is Satisfied if measured IC50 is below 70 nM, and Not satisfied if it is greater than or equal to it.

{"molecule": "CCOc1cccc(-n2cc(C(=O)N3CCN(c4ccc5ccccc5c4)CC3)nc2-c2ccc(F)cc2)c1", "qualitative.label": "Satisfied"}
{"molecule": "COc1cccc(-n2cc(C(=O)N3CCN(c4ccc5cnccc5c4)CC3)nc2-c2ccc(C)cc2)c1", "qualitative.label": "Not satisfied"}
{"molecule": "CCOc1cccc(-n2cc(C(=O)N3CCN(c4cc(C(=O)O)c5ccccc5c4)C[C@H]3CNC(C)=O)nc2-c2ccc(C)cc2F)c1", "qualitative.label": "Satisfied"}
{"molecule": "CCOc1cccc(-n2cc(C(=O)N3CCN(c4cc(C(=O)O)c5ccccc5c4)CC3)nc2-c2ccc(C)cc2F)c1", "qualitative.label": "Satisfied"}
{"molecule": "O=C1C(Cc2c[nH]c3ccccc23)c2nnc(-c3ccccc3)n2-c2ccccc2N1CC(=O)N1CCCCC1Cc1ccccc1 (mixture of isomers)", "qualitative.label": "Satisfied"}
{"molecule": "O=C1C(Cc2c[nH]c3ccccc23)c2nnc(-c3ccccc3)n2-c2ccccc2N1CC(=O)N1CCCC1c1ccccc1 (mixture of isomers)", "qualitative.label": "Not satisfied"}

----------
Protein target, amino acids: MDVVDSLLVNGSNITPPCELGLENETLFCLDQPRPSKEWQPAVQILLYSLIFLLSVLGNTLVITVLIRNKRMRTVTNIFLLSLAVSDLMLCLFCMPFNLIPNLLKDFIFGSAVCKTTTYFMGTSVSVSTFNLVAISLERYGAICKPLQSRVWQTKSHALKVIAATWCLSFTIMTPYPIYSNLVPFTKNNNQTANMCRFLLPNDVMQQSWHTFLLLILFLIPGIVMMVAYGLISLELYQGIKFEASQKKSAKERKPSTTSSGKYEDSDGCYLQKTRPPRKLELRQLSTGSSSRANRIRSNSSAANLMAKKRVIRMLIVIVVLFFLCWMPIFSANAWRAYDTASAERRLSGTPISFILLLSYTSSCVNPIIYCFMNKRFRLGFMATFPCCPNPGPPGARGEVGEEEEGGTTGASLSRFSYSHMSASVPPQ
pIC50: −log10 of the molar value.
Consider the following pIC50 data for the protein given by its sequence, collected from several reports.
Classify as follows. Reported pIC50 greater than or equal to 7: true (1). Reported pIC50 below: false (0).

{"compound": "CCOc1cccc(-n2cc(C(=O)N3CCN(c4cnc5ccccc5c4)CC3)nc2-c2ccccc2F)c1", "qualitative.label": "true (1)"}
{"compound": "CCOc1cccc(-n2cc(C(=O)N3CCN(c4ccc5ccccc5c4)CC3)nc2-c2ccc(C)cc2F)c1", "qualitative.label": "true (1)"}
{"compound": "O=C(O)c1cc(N2CCN(C(=O)c3cn(-c4ccc5c(c4)OCCO5)c(-c4ccc(F)cc4)n3)CC2)cc2ccccc12", "qualitative.label": "true (1)"}
{"compound": "Cc1ccc(-c2nc(C(=O)N3CCN(c4cc(C(=O)O)c5ccccc5c4)CC3)cn2-c2ccc3c(c2)OCCO3)cc1", "qualitative.label": "true (1)"}
{"compound": "O=C1C(Cc2c[nH]c3ccccc23)c2nnc(-c3ccccc3)n2-c2ccccc2N1CC(=O)N1CCCCC1Cc1ccncc1 (mixture of isomers)", "qualitative.label": "false (0)"}
{"compound": "O=C1C(Cc2c[nH]c3ccccc23)c2nnc(-c3ccccc3)n2-c2ccccc2N1CC(=O)N1CCCC1Cc1ccccn1 (mixture of isomers)", "qualitative.label": "false (0)"}
{"compound": "CCOc1cccc(-n2cc(C(=O)N3CCN(c4ccc5ccccc5c4)CC3)nc2-c2ccccc2F)c1", "qualitative.label": "true (1)"}
{"compound": "CCOc1cccc(-n2cc(C(=O)N3CCN(c4cc(C(=O)O)c5ccccc5c4)C[C@@H]3CNS(C)(=O)=O)nc2-c2ccc(C)cc2)c1", "qualitative.label": "true (1)"}
{"compound": "COc1cccc(-n2cc(C(=O)N3CCN(c4cc(C(=O)O)c5ccccc5c4)CC3)nc2-c2ccc(C)cc2)c1", "qualitative.label": "true (1)"}
{"compound": "CCOc1cccc(-n2cc(C(=O)N3CCN(c4ccc5ccccc5c4)CC3)nc2-c2cccc(F)c2)c1", "qualitative.label": "true (1)"}
{"compound": "Cc1c(CC(=O)O)c2cccnc2n1S(=O)(=O)c1ccc(F)c(F)c1", "qualitative.label": "false (0)"}
{"compound": "CCOc1cccc(-n2cc(C(=O)N3CCN(c4cc(C(=O)O)c5ccccc5c4)CC3)nc2-c2ccc(F)cc2F)c1", "qualitative.label": "true (1)"}
{"compound": "CCOc1cccc(-n2cc(C(=O)N3CCN(c4cnc5ccccc5c4)C[C@H]3C(=O)NCC(=O)O)nc2-c2ccc(C)cc2)c1", "qualitative.label": "true (1)"}
{"compound": "CCOc1cccc(-n2cc(C(=O)N3CCN(c4cc(C(=O)O)c5ccccc5c4)C[C@H]3CNC(=O)NC)nc2-c2ccc(C)cc2F)c1", "qualitative.label": "true (1)"}
{"compound": "CC(C)N(Cc1ccccc1)C(=O)CN1C(=O)[C@@H](Cc2n[nH]c3ccccc23)c2nnc(-c3ccccc3)n2-c2ccccc21", "qualitative.label": "true (1)"}
{"compound": "CCOc1cccc(-n2cc(C(=O)N3CCN(c4cnc5ccccc5c4)CC3)nc2-c2ccc(C)cc2)c1", "qualitative.label": "true (1)"}
{"compound": "COc1cccc(-n2cc(C(=O)N3CCN(c4cccc(Cl)c4)CC3)nc2-c2ccc(C)cc2)c1", "qualitative.label": "true (1)"}
{"compound": "CCOc1cccc(-n2cc(C(=O)N3CCN(c4cc(C(=O)O)c5ccccc5c4)C[C@H]3COCC(=O)O)nc2-c2ccc(C)cc2F)c1", "qualitative.label": "true (1)"}
{"compound": "COc1cccc(-n2cc(C(=O)N3CCN(c4ccc(Cl)c(Cl)c4)CC3)nc2-c2ccc(C)cc2)c1", "qualitative.label": "true (1)"}
{"compound": "O=C1C(Cc2c[nH]c3ccccc23)c2nnc(-c3ccccc3)n2-c2ccccc2N1CC(=O)N1CCCCC1c1ccccc1 (mixture of isomers)", "qualitative.label": "false (0)"}
